readout: melting point (°C)

COc1cccc(-c2cnc(-c3ccncc3)nc2C2CCN(Cc3ccccc3)CC2)c1 = 174
COc1cccc(-c2cnc(-c3ccncc3)nc2C2CCN(Cc3ccccc3C#N)CC2)c1 = 158
CC(C)(C)CN1CCC(c2nc(-c3ccncc3)ncc2-c2cccc(C#N)c2)CC1 = 155
CC(C)(C#N)CN1CCC(c2nc(-c3ccc(F)cc3)ncc2-c2cccc(C#N)c2)CC1 = 171
COc1cccc(-c2cnc(-c3ccncc3)nc2C2CCN(Cc3ccc(Cl)cc3)CC2)c1 = 131
COc1cccc(-c2cnc(-c3ccncc3)nc2C2CCN(Cc3ccsc3)CC2)c1 = 135
COc1cccc(-c2cnc(-c3ccncc3)nc2C2CCN(Cc3cccc(C#N)c3)CC2)c1 = 140
COc1cccc(-c2cnc(-c3ccncc3)nc2C2CCN(Cc3cccc(C(F)(F)F)c3)CC2)c1 = 156
COc1cccc(-c2cnc(-c3ccncc3)nc2C2CCN(CC(F)F)CC2)c1 = 123
COc1cccc(-c2cnc(-c3ccncc3)nc2C2CCN(Cc3ccc(C)cc3)CC2)c1 = 141
